measured on: Cellular tumor antigen p53 (Homo sapiens) (UniProt P04637)
Sequence (P04637 whole entry, looked up): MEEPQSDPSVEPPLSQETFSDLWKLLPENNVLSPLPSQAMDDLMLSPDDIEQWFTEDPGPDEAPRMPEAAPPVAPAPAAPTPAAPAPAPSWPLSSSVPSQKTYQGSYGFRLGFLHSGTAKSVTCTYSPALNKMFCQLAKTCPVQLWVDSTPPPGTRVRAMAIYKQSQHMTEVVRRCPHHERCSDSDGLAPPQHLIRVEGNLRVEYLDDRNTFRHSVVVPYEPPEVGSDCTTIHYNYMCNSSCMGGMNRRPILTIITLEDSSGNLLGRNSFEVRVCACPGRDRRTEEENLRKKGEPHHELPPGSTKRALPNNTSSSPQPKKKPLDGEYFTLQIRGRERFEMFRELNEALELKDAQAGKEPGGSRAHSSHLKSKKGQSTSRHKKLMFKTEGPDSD
test details: TOX21_p53_BLA_p4_ratio: Tox21 HCT-116 p53 Agonism Beta-lactamase Assay, Ratio, Phase 4 (AID 2283601)
Results filed as inconclusive are left out. Activity calls are given as the source filed them. Rule for the calls: active = hit-call score of the fitted dose curve at least 0.9, where 1 is the maximum; inconclusive = response in the unintended direction; inactive = score below 0.9.
Please state which outcome applies, choosing from y for active, n for inactive

- compound: "CN1C(=O)CC(c2ccccc2)C1=O (stereo not given)"
  measured on: "Cellular tumor antigen p53 (Homo sapiens) (UniProt P04637)"
  group label: "n"
- compound: "OC[C@@H](O)[C@@H](O)CO"
  measured on: "Cellular tumor antigen p53 (Homo sapiens) (UniProt P04637)"
  group label: "n"
- compound: "CCCCCCCCCOC(=O)c1ccc(O)cc1"
  measured on: "Cellular tumor antigen p53 (Homo sapiens) (UniProt P04637)"
  group label: "y"
- compound: "NC(=O)c1ncn([C@@H]2O[C@H](CO)[C@@H](O)[C@H]2O)c1N"
  measured on: "Cellular tumor antigen p53 (Homo sapiens) (UniProt P04637)"
  group label: "n"
- compound: "CCn1nc(C(=O)O)c(=O)c2cc3c(cc21)OCO3"
  measured on: "Cellular tumor antigen p53 (Homo sapiens) (UniProt P04637)"
  group label: "n"
- compound: "CC1(C)CCC(C)(C)c2cc(NC(=O)c3ccc(C(=O)O)cc3)ccc21"
  measured on: "Cellular tumor antigen p53 (Homo sapiens) (UniProt P04637)"
  group label: "y"

Q: I would be grateful if you could indicate the recorded call for CC1(C)S[C@@H]2[C@H](NC(=O)[C@H](N)c3ccccc3)C(=O)N2[C@H]1C(=O)O .
A: n

Q: What outcome does the record of this test show for CN=C(N)NCCC[C@H](N)C(=O)O ?
A: n

---

Read-out: Human Leukocyte Antigen - DR isotype (HLADR), HLA-DRA (gene 3122)
test details: BSK_BE3C_HLADR: BioMAP Diversity Plus: BE3C Assay for Human Leukocyte Antigen - DR isotype (HLADR) Biomarker Activity (AID 2283032)
run parameters: primary human bronchial epithelial cells; actives raise or lower the signal
The source made the active and inactive calls. The calls were made as follows: active = hit-call score of the fitted dose curve at least 0.9, where 1 is the maximum; inactive = score below 0.9.
One label from this list, please: yes (active), no (inactive)

Q: Recorded test call requested for O=C(C(=O)c1ccccc1)c1ccccc1
A: no

Q: Which outcome did this test record for the compound CN(C)c1ccc(C(c2ccccc2)c2ccc(N(C)C)cc2)cc1 ?
A: no

Q: Test call for this compound, please: COC(=O)/C=C\C(=O)OC
A: yes

Q: Each compound tested received a call. Report the one for CCCCCCC(O)CCCCCCCCCCC(=O)OC (stereo unspecified) .
A: no

Q: What classification did CCCCCCCCCC/C=C/C1CC(=O)OC1=O (stereo unspecified) end up with in this test?
A: yes

Q: // param item: CC(C)C1OCCN1CCOC(=O)NCCCCCCNC(=O)OCCN1CCOC1C(C)C (stereo unspecified) ; yields the recorded call
A: no

---

test details: TOX21_p53_BLA_p5_viability: Viability Assessment in the Tox21 HCT-116 p53 Agonism Beta-lactamase Assay, Phase 5 (AID 2283600)
Inconclusive results are not listed. The source made the active and inactive calls. The calls were made as follows: active = hit-call score of the fitted dose curve at least 0.9, where 1 is the maximum; inconclusive = response in the unintended direction; inactive = score below 0.9.
Bench note: report the call from active, inactive

- compound: "O=C(NCC1CCCCN1)c1cc(OCC(F)(F)F)ccc1OCC(F)(F)F (centres undefined)"
  group label: "inactive"
- compound: "CN(C/C=C/c1ccccc1)Cc1cccc2ccccc12"
  group label: "inactive"
- compound: "O=C(O)c1cc(=O)c2ccccc2o1"
  group label: "inactive"
- compound: "C=CC(=O)OCCCl"
  group label: "inactive"
- compound: "O=C(Cl)c1cc(Cl)cc(Cl)c1"
  group label: "inactive"

Okay, now this compound:
Q: Could you please tell me the result logged for COC(=O)[C@H]1[C@H]2C[C@@H]3c4[nH]c5ccccc5c4CCN3C[C@H]2C[C@@H](OC(=O)c2cc(OC)c(OC)c(OC)c2)[C@@H]1OC in this assay?
A: inactive
